Biological target: monkey NPR1 (Macaca fascicularis, UniProt A0A7N9DBT9)
Sequence (A0A7N9DBT9 entry or part of it): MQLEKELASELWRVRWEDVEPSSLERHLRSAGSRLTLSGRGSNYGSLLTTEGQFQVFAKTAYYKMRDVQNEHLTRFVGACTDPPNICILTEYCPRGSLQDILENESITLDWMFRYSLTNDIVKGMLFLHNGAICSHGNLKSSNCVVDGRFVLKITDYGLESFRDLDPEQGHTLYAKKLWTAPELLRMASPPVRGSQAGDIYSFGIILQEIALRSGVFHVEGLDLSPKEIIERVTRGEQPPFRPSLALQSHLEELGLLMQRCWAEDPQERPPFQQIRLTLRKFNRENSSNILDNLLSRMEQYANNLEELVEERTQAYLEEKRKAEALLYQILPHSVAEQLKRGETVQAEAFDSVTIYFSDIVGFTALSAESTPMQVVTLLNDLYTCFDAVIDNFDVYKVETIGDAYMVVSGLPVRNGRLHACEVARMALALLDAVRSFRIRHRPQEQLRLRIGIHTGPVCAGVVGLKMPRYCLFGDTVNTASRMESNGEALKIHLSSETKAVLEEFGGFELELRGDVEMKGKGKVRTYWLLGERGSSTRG
Assay: Cellular cGMP production assay, monkey NPR1 expressing CHO-K1 cells (CisBio HTRF)
Assay type: cell-based
Readout type: AC50 (nM)
Entry rule: numbers only, all in nM.

Guide cases for AC50, answers given:
- Molecule: "CC[C@H]([C@H]1CC[C@H](C(=O)O)CC1)N(C)c1nc2c(c(N[C@@H](CN3C4CCCC3CCC4)c3cnn(C)c3)n1)C[C@H](c1ccccc1)CC2 [Compound 143]"
  Test target: "monkey NPR1 (Macaca fascicularis, UniProt A0A7N9DBT9)"
  Units symbol: "nM"
  AC50: 694
- Molecule: "CC[C@H]([C@H]1CC[C@H](C(=O)O)CC1)N(C)c1nc2c(c(N[C@@H](CN3C4CCCC3COC4)c3cnn(C)c3)n1)C[C@H](c1ccccc1)CC2 [Compound 169]"
  Test target: "monkey NPR1 (Macaca fascicularis, UniProt A0A7N9DBT9)"
  Units symbol: "nM"
  AC50: 1920
- Molecule: "CC[C@H]([C@H]1CC[C@H](C(=O)O)CC1)N(C)c1nc2c(c(N[C@@H](CN3C[C@H]4C[C@@H](C3)C4O)c3cnn(C)c3)n1)C[C@H](c1ccccc1)CC2 (some centres unmarked) [Compound 138]"
  Test target: "monkey NPR1 (Macaca fascicularis, UniProt A0A7N9DBT9)"
  Units symbol: "nM"
  AC50: 734
- Molecule: "CC[C@H]([C@H]1CC[C@H](C(=O)O)CC1)N(C)c1nc2c(c(N[C@@H](CN3C4CCCC3CC4)c3cn(C)nc3C)n1)C[C@H](c1cccc(F)c1)CC2 [Compound 102]"
  Test target: "monkey NPR1 (Macaca fascicularis, UniProt A0A7N9DBT9)"
  Units symbol: "nM"
  AC50: 279

Next, consider the following molecule.
**Query** # input molecule: CC[C@@H](N(C)c1nc2c(c(N[C@@H](CN3C4CCCC3CCC4)c3cnn(C)c3)n1)C[C@H](c1ccccc1F)CC2)C12CC(C(=O)O)(C1)C2 [Compound 41] ; wanted: its AC50
**Result** 144

====

Biological target: human NPR1 (Homo sapiens, UniProt P16066)
Construct: host or cells: CHO-K1
Assay: Cellular cGMP production assay, human NPR1 expressing CHO-K1 cells (CisBio HTRF)
Type: cell-based
Details: cGMP production, 30 min at 37° C., 12-point dose-response from 30 μM
# key: entry, value: AC50
Entry rule: numbers only, all in nM.

Guide cases for AC50, answers given:
- Molecule: "CC[C@@H](Nc1nc2c(c(N[C@@H](CN3CCCCCC3)c3cnn(CC)c3)n1)C[C@H](c1ccccc1)CC2)[C@H]1CC[C@H](C(=O)O)CC1 [Compound 94]"
  Observed value: 326
- Molecule: "CC[C@@H](Nc1nc2c(c(N[C@@H](CN3CCCCC3)c3cnn(C)c3)n1)CN(c1cccc(F)c1)CC2)[C@H]1CC[C@H](C(=O)O)CC1 [Compound 55]"
  Observed value: 194
- Molecule: "CC[C@H]([C@H]1CC[C@H](C(=O)O)CC1)N(C)c1nc2c(c(N[C@@H](CN3CCC4CC4C3)c3cnn(C)c3)n1)C[C@H](c1ccccc1)CC2 (stereo partly drawn) [Compound 78]"
  Observed value: 254
- Molecule: "CC[C@H]([C@H]1CC[C@H](C(=O)O)CC1)N(C)c1nc2c(c(N[C@@H](CN3CCC[C@H](C)C3)c3cnn(C)c3)n1)C[C@](C)(c1ccccc1)CC2 [Compound 7]"
  Observed value: 80
- Molecule: "CC[C@H]([C@H]1CC[C@H](C(=O)O)CC1)N(C)c1nc2c(c(N[C@@H](CN3CCCCC3)c3cnn(CC4CC4)c3)n1)C[C@H](c1ccccc1)CC2 [Compound 147]"
  Observed value: 1080

**Query** # input molecule: CC[C@@H](Nc1nc2c(c(N[C@@H](CN3C4CCCC3CC4)c3csc(C)n3)n1)C[C@H](c1cccc(F)c1)CC2)[C@H]1CC[C@H](C(=O)O)CC1 [Compound 127] ; wanted: its AC50
**Result** 623

====

Target: human NPR1 (Homo sapiens, UniProt P16066)
Construct: host or cells: CHO-K1
Assay: Cellular cGMP production assay, human NPR1 expressing CHO-K1 cells (CisBio HTRF)
Assay type: cell-based
Details: cGMP production, 30 min at 37° C., 12-point dose-response from 30 μM
Lab note: compare AC50 with 200 nM, writing satisfied if less and not satisfied if equal or more.

Before answering, review these 5 worked examples.
- Compound: "CC[C@@H](Nc1nc2c(c(N[C@@H](CN3CCCC[C@H]3C)c3cnn(CC)c3)n1)C[C@H](c1ccccc1)CC2)[C@H]1CC[C@H](C(=O)O)CC1"
  Classification: "not satisfied"
- Compound: "CC[C@H]([C@H]1CC[C@H](C(=O)O)CC1)N(C)c1nc2c(c(N[C@@H](CN3CCCCC3)c3cnn(C)c3)n1)C[C@](C)(c1ccccc1)CC2"
  Classification: "not satisfied"
- Compound: "CC[C@H]([C@H]1CC[C@H](C(=O)O)CC1)N(C)c1nc2c(c(N[C@@H](CN3C4CCCC3CCC4)c3cnn(CC)c3)n1)C[C@H](c1ccccc1)CC2"
  Classification: "not satisfied"
- Compound: "CC[C@@H](Nc1nc2c(c(N[C@@H](CN3C4CCCC3CCC4)c3cnn(CC)c3)n1)C[C@@H](c1cccc(F)c1)CC2)[C@H]1CC[C@H](C(=O)O)CC1"
  Classification: "satisfied"
- Compound: "CC[C@@H](Nc1nc2c(c(N[C@H](CN3CCC[C@H](C)C3)c3cnn(C)c3)n1)C[C@](C)(c1cccc(F)c1)CC2)[C@H]1CC[C@H](C(=O)O)CC1 (stereo in doubt)"
  Classification: "not satisfied"

**Query** Is it true that AC50 reported for `CC[C@@H](Nc1nc2c(c(N[C@@H](CN3C4CCCC3CCC4)c3cnn(C)c3)n1)C[C@H](c1cccc(F)c1)CC2)[C@H]1CC[C@H](C(=O)O)CC1` is less than 200 nM?
**Result** satisfied

**Query** Is it true that AC50 reported for `CC[C@H]([C@H]1CC[C@H](C(=O)O)CC1)N(C)c1nc2c(c(N[C@@H](CN3CCC[C@H](C)C3)c3ccnn3C)n1)C[C@H](c1cccc(F)c1)CC2` is less than 200 nM?
**Result** not satisfied

**Query** Is it true that AC50 reported for `CC[C@@H](N(C)c1nc2c(c(N[C@@H](CN3C4CCCC3CC4)c3cnn(C)c3)n1)C[C@H](c1ccc(F)cc1)CC2)C12CC(C(=O)O)(C1)C2` is less than 200 nM?
**Result** satisfied

**Query** Is it true that AC50 reported for `C[C@H]1CCCN(C[C@H](Nc2nc(N(C)[C@H](C3CC3)[C@H]3CC[C@H](C(=O)O)CC3)nc3c2C[C@H](c2ccccc2)CC3)c2cnn(C)c2)C1` is less than 200 nM?
**Result** not satisfied

**Query** Is it true that AC50 reported for `CC[C@H]([C@H]1CC[C@H](C(=O)O)CC1)N(C)c1nc2c(c(N[C@@H](CN3CCC[C@H](C)C3)c3cnn(C)c3)n1)CN(c1cccc(Cl)c1)CC2` is less than 200 nM?
**Result** not satisfied

**Query** Is it true that AC50 reported for `CC[C@H]([C@H]1CC[C@H](C(=O)O)CC1)N(C)c1nc2c(c(N[C@@H](CN3CCCCC3)c3cnn(CC)c3)n1)C[C@H](c1cccc(F)c1)CC2` is less than 200 nM?
**Result** not satisfied

====

Target: human NPR1 (Homo sapiens, UniProt P16066)
Construct: host or cells: CHO-K1
Sequence (P16066 33-1061): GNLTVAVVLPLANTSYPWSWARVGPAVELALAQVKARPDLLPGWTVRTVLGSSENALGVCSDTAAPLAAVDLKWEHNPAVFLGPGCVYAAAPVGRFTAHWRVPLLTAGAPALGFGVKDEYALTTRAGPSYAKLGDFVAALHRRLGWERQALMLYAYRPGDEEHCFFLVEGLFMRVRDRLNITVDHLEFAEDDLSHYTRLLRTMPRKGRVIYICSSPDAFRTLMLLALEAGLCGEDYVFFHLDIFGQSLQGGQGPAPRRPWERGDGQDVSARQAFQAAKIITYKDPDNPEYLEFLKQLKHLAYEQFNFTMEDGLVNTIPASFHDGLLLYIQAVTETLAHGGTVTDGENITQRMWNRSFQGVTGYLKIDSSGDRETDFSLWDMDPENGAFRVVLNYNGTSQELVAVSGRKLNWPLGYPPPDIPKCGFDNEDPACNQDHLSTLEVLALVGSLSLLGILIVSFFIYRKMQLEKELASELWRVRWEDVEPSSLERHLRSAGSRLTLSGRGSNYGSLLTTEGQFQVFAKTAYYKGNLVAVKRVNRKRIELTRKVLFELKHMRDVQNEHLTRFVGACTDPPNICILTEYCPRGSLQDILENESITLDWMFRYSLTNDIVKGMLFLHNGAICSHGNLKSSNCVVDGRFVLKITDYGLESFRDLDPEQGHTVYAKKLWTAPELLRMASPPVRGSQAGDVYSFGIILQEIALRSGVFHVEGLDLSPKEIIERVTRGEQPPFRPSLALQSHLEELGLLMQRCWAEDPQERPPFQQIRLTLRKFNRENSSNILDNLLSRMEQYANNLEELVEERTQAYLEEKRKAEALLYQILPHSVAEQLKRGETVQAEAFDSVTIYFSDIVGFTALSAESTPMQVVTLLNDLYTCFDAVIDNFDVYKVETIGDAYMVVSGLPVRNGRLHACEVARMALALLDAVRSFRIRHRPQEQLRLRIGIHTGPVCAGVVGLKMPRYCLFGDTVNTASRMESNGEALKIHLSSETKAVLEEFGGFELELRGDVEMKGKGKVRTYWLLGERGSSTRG
Assay: Cellular cGMP production assay, human NPR1 expressing CHO-K1 cells (CisBio HTRF)
Type: cell-based
Details: cGMP production, 30 min at 37° C., 12-point dose-response from 30 μM
# key: entry, value: AC50
Entry rule: numbers only, all in nM.

Guide cases for AC50, answers given:
- Compound: "C[C@@H](Nc1nc2c(c(N[C@@H](CN3C4CCCC3CCC4)c3cnn(C)c3)n1)C[C@H](c1ccccc1)CC2)c1ccc(C(=O)O)c(F)c1 [Compound 168]"
  AC50 (nM): 2230
- Compound: "CC[C@@H](Nc1nc2c(c(N[C@@H](CN3CCCC[C@@H]3C)c3cnn(C)c3)n1)C[C@H](c1ccccc1)CC2)[C@H]1CC[C@H](C(=O)O)CC1 [Compound 123]"
  AC50 (nM): 592
- Compound: "CC[C@@H](Nc1nc2c(c(N[C@@H](CN3C4CC5CC(C4)CC3C5)c3cnn(CC)c3)n1)C[C@H](c1ccccc1)CC2)[C@H]1CC[C@H](C(=O)O)CC1 [Compound 38]"
  AC50 (nM): 161
- Compound: "CC[C@@H](Nc1nc2c(c(N[C@@H](CN3CCCC(F)(F)CC3)c3cnn(CC)c3)n1)C[C@H](c1ccccc1)CC2)[C@H]1CC[C@H](C(=O)O)CC1 [Compound 137]"
  AC50 (nM): 840

Next, consider the following compound.
**Query** # input compound: CC[C@H]([C@H]1CC[C@H](C(=O)O)CC1)N(C)c1nc2c(c(N[C@@H](CN3C4CCCC3CC4)c3cnn(C)c3)n1)C[C@H](c1cccc(F)c1)CC2 [Compound 33] ; wanted: its AC50
**Result** 145
